Tested on: 324938-238-R-J1-PDC complex spheroid growth, % test/control
assay: Anticancer human tumor 324938-238-R-J1-PDC patient-derived bladder carcinoma cell line growth inhibition [AhR]
conditionNotes: second compound 0.1 µM; first compound 0.03 µM; stronger effect = lower value
metricName: viability, T/C (%)
Please give a number only; it is taken to be in %.

Reference set, count: 5
- compound: "CC(C)CC(NC(=O)C(Cc1ccccc1)NC(=O)c1cnccn1)B(O)O (stereo unspecified) + Cc1cncc(-c2nc(NCCc3c[nH]c4ccccc34)c3ncn(C(C)C)c3n2)c1"
  scaleUnit: "%"
  viability, T/C: 0.6
- compound: "CCN(c1cc(-c2ccc(CN3CCOCC3)cc2)cc(C(=O)NCc2c(C)cc(C)[nH]c2=O)c1C)C1CCOCC1 + Cc1ccccc1N=Nc1ccc(NC(=O)c2ccnn2C)c(C)c1"
  scaleUnit: "%"
  viability, T/C: 113
- compound: "Nc1ncn(C2CC(O)C(CO)S2)c(=O)n1 (stereo unspecified) + CC(CO)NC(=O)c1cc(-c2ccc(Cl)cc2)nn(-c2cnn(C)c2)c1=O"
  scaleUnit: "%"
  viability, T/C: 84
- compound: "Nc1ncn(C2CC(O)C(CO)S2)c(=O)n1 (stereo unspecified) + Cc1ccccc1N=Nc1ccc(NC(=O)c2ccnn2C)c(C)c1"
  scaleUnit: "%"
  viability, T/C: 78.5
- compound: "CCc1c2c(nc3ccc(O)cc13)-c1cc3c(c(=O)n1C2)COC(=O)[C@]3(O)CC + CC(CO)NC(=O)c1cc(-c2ccc(Cl)cc2)nn(-c2cnn(C)c2)c1=O"
  scaleUnit: "%"
  viability, T/C: 17.3

Enter measured viability, T/C, system 324938-238-R-J1-PDC complex spheroid growth, % test/control, for the compound shown: CC(C)CC(NC(=O)C(Cc1ccccc1)NC(=O)c1cnccn1)B(O)O (stereo unspecified) + Cc1ccccc1N=Nc1ccc(NC(=O)c2ccnn2C)c(C)c1
0.07

----------
System: 324938-238-R-J1-PDC complex spheroid growth, % test/control
assay: Anticancer human tumor 324938-238-R-J1-PDC cell line growth inhibition [AhR];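 note: spheroids exposed to agents for seven days before viability read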
conditionNotes: second compound 0.1 µM; first compound 0.00316 µM; stronger effect = lower value
We begin with a simple list: items and their reported viability, T/C.
Report the figure in % without appending any unit label.

These recorded examples may help you get a feel for the data.
- compound: "CC1COCCN1c1cc(-c2ccnn2C)c2ccnc(-c3ccn[nH]3)c2n1 (stereo unspecified) + CC(CO)NC(=O)c1cc(-c2ccc(Cl)cc2)nn(-c2cnn(C)c2)c1=O"
  viability, T/C / %: 97
- compound: "CC[C@@]1(O)C(=O)OCc2c1cc1n(c2=O)Cc2cc3c(CN(C)C)c(O)ccc3nc2-1 + Cc1cncc(-c2nc(NCCc3c[nH]c4ccccc34)c3ncn(C(C)C)c3n2)c1"
  viability, T/C / %: 99.7
- compound: "CC1COCCN1c1cc(-c2ccnn2C)c2ccnc(-c3ccn[nH]3)c2n1 (stereo unspecified) + Cc1ccccc1N=Nc1ccc(NC(=O)c2ccnn2C)c(C)c1"
  viability, T/C / %: 102
- compound: "CC[C@@]1(O)C(=O)OCc2c1cc1n(c2=O)Cc2cc3c(CN(C)C)c(O)ccc3nc2-1 + CC(CO)NC(=O)c1cc(-c2ccc(Cl)cc2)nn(-c2cnn(C)c2)c1=O"
  viability, T/C / %: 89.7
- compound: "Nc1ncn(C2CC(O)C(CO)O2)c(=O)n1 (stereo unspecified) + CC(CO)NC(=O)c1cc(-c2ccc(Cl)cc2)nn(-c2cnn(C)c2)c1=O"
  viability, T/C / %: 98.5

Field: next compound
Find the measured viability, T/C of CC1COCCN1c1cc(-c2ccnn2C)c2ccnc(-c3ccn[nH]3)c2n1 (stereo unspecified) + Cc1cncc(-c2nc(NCCc3c[nH]c4ccccc34)c3ncn(C(C)C)c3n2)c1 and report it.
87.9

----------
System: 324938-238-R-J1-PDC complex spheroid growth, % test/control
assay: Anticancer human tumor 324938-238-R-J1-PDC cell line growth inhibition [AhR];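 note: spheroids exposed to agents for seven days before viability read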
conditionNotes: curve of first compound; second compound 1 µM
Each entry below lists one item and its recorded IC50 value.
# number only, unit µM dropped from output

The following compounds have reported results that may help.
- compound: "O=C(C=Cn1cnc(-c2cc(C(F)(F)F)cc(C(F)(F)F)c2)n1)NNc1cnccn1 + Cc1ccccc1N=Nc1ccc(NC(=O)c2ccnn2C)c(C)c1"
  targetEntity: "324938-238-R-J1-PDC complex spheroid growth, % test/control"
  scaleUnit: "µM"
  IC50: 0.178
- compound: "O=C(C=Cc1cccc(S(=O)(=O)Nc2ccccc2)c1)NO + Cc1cncc(-c2nc(NCCc3c[nH]c4ccccc34)c3ncn(C(C)C)c3n2)c1"
  targetEntity: "324938-238-R-J1-PDC complex spheroid growth, % test/control"
  scaleUnit: "µM"
  IC50: 3.03
- compound: "COc1cc(Nc2ncc3c(n2)-c2ccc(Cl)cc2C(c2c(F)cccc2OC)=NC3)ccc1C(=O)O + Cc1ccccc1N=Nc1ccc(NC(=O)c2ccnn2C)c(C)c1"
  targetEntity: "324938-238-R-J1-PDC complex spheroid growth, % test/control"
  scaleUnit: "µM"
  IC50: 0.0855

# next compound below
Report IC50, nothing else, for this compound: CC[C@@]1(O)C(=O)OCc2c1cc1n(c2=O)Cc2cc3c(CN(C)C)c(O)ccc3nc2-1 + Cc1ccccc1N=Nc1ccc(NC(=O)c2ccnn2C)c(C)c1
0.0185

----------
Test system: 324938-238-R-J1-PDC complex spheroid growth, % test/control
assay: Anticancer human tumor 324938-238-R-J1-PDC cell line growth inhibition [AhR];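 note: spheroids exposed to agents for seven days before viability read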
conditionNotes: second compound 0.316 µM; first compound 0.000949 µM; stronger effect = lower value
metricName: viability, T/C (%)
Write the value in % as a bare number.

- compound: "Nc1ncn(C2CC(O)C(CO)S2)c(=O)n1 (centres undefined) + CC(CO)NC(=O)c1cc(-c2ccc(Cl)cc2)nn(-c2cnn(C)c2)c1=O"
  targetEntity: "324938-238-R-J1-PDC complex spheroid growth, % test/control"
  readoutNumber: 93.9
- compound: "CC(C)CC(NC(=O)C(Cc1ccccc1)NC(=O)c1cnccn1)B(O)O (centres undefined) + CC(CO)NC(=O)c1cc(-c2ccc(Cl)cc2)nn(-c2cnn(C)c2)c1=O"
  targetEntity: "324938-238-R-J1-PDC complex spheroid growth, % test/control"
  readoutNumber: 85.8
- compound: "Nc1ncn(C2CC(O)C(CO)S2)c(=O)n1 (centres undefined) + Cc1cncc(-c2nc(NCCc3c[nH]c4ccccc34)c3ncn(C(C)C)c3n2)c1"
  targetEntity: "324938-238-R-J1-PDC complex spheroid growth, % test/control"
  readoutNumber: 113
- compound: "CCc1c2c(nc3ccc(O)cc13)-c1cc3c(c(=O)n1C2)COC(=O)[C@]3(O)CC + Cc1ccccc1N=Nc1ccc(NC(=O)c2ccnn2C)c(C)c1"
  targetEntity: "324938-238-R-J1-PDC complex spheroid growth, % test/control"
  readoutNumber: 57.4
- compound: "CCc1c2c(nc3ccc(O)cc13)-c1cc3c(c(=O)n1C2)COC(=O)[C@]3(O)CC + CC(CO)NC(=O)c1cc(-c2ccc(Cl)cc2)nn(-c2cnn(C)c2)c1=O"
  targetEntity: "324938-238-R-J1-PDC complex spheroid growth, % test/control"
  readoutNumber: 37.5

Write down measured viability, T/C (324938-238-R-J1-PDC complex spheroid growth, % test/control) for this compound. CCc1c2c(nc3ccc(O)cc13)-c1cc3c(c(=O)n1C2)COC(=O)[C@]3(O)CC + Cc1cncc(-c2nc(NCCc3c[nH]c4ccccc34)c3ncn(C(C)C)c3n2)c1
82.3

Under 324938-238-R-J1-PDC complex spheroid growth, % test/control: report viability, T/C of CC(C)CC(NC(=O)C(Cc1ccccc1)NC(=O)c1cnccn1)B(O)O (centres undefined) + Cc1cncc(-c2nc(NCCc3c[nH]c4ccccc34)c3ncn(C(C)C)c3n2)c1 .
123

Give the observed viability, T/C of Nc1ncn(C2CC(O)C(CO)S2)c(=O)n1 (centres undefined) + Cc1ccccc1N=Nc1ccc(NC(=O)c2ccnn2C)c(C)c1 for 324938-238-R-J1-PDC complex spheroid growth, % test/control.
81.7

Retrieve viability, T/C on 324938-238-R-J1-PDC complex spheroid growth, % test/control; query CC(C)CC(NC(=O)C(Cc1ccccc1)NC(=O)c1cnccn1)B(O)O (centres undefined) + Cc1ccccc1N=Nc1ccc(NC(=O)c2ccnn2C)c(C)c1
92.3

----------
System: 324938-238-R-J1-PDC complex spheroid growth, % test/control
assay: Anticancer human tumor 324938-238-R-J1-PDC cell line growth inhibition [AhR];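 note: spheroids exposed to agents for seven days before viability read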
conditionNotes: second compound 3.16 µM; first compound 0.000949 µM; stronger effect = lower value
Label Y when viability, T/C is strictly below 80%; otherwise label N.

Sample answers from the record:
- compound: "Nc1ncn(C2CC(O)C(CO)S2)c(=O)n1 (centres undefined) + Cc1cncc(-c2nc(NCCc3c[nH]c4ccccc34)c3ncn(C(C)C)c3n2)c1"
  cat: "N"
- compound: "CC(C)CC(NC(=O)C(Cc1ccccc1)NC(=O)c1cnccn1)B(O)O (centres undefined) + Cc1ccccc1N=Nc1ccc(NC(=O)c2ccnn2C)c(C)c1"
  cat: "N"
- compound: "CC(C)CC(NC(=O)C(Cc1ccccc1)NC(=O)c1cnccn1)B(O)O (centres undefined) + Cc1cncc(-c2nc(NCCc3c[nH]c4ccccc34)c3ncn(C(C)C)c3n2)c1"
  cat: "N"
- compound: "Nc1ncn(C2CC(O)C(CO)S2)c(=O)n1 (centres undefined) + CC(CO)NC(=O)c1cc(-c2ccc(Cl)cc2)nn(-c2cnn(C)c2)c1=O"
  cat: "Y"
- compound: "CCc1c2c(nc3ccc(O)cc13)-c1cc3c(c(=O)n1C2)COC(=O)[C@]3(O)CC + Cc1cncc(-c2nc(NCCc3c[nH]c4ccccc34)c3ncn(C(C)C)c3n2)c1"
  cat: "Y"
- compound: "CCc1c2c(nc3ccc(O)cc13)-c1cc3c(c(=O)n1C2)COC(=O)[C@]3(O)CC + CC(CO)NC(=O)c1cc(-c2ccc(Cl)cc2)nn(-c2cnn(C)c2)c1=O"
  cat: "Y"

API: query returns whether the compound falls strictly under 80% in viability, T/C. Query: CC(C)CC(NC(=O)C(Cc1ccccc1)NC(=O)c1cnccn1)B(O)O (centres undefined) + CC(CO)NC(=O)c1cc(-c2ccc(Cl)cc2)nn(-c2cnn(C)c2)c1=O
Y

API: query returns whether the compound falls strictly under 80% in viability, T/C. Query: CCc1c2c(nc3ccc(O)cc13)-c1cc3c(c(=O)n1C2)COC(=O)[C@]3(O)CC + Cc1ccccc1N=Nc1ccc(NC(=O)c2ccnn2C)c(C)c1
Y

Would you kindly verify if viability, T/C of Nc1ncn(C2CC(O)C(CO)S2)c(=O)n1 (centres undefined) + Cc1ccccc1N=Nc1ccc(NC(=O)c2ccnn2C)c(C)c1 is strictly less than 80%?
N
